protocol: osmotic lysis modulators in infected erythrocytes, primary screen, PSAC antagonist project, cell-based, P. falciparum Indochina, OD700, 3 h (AID 1156)
condition details: higher = more signal, called active from +8 up or from −8 down
measure: z-score
Quick one: just the number, no unit, thanks!

compound	measure	value observed
COCCOC(=O)N1C(=O)[C@@]2(c3cc(C#CCCO)ccc31)[C@H](c1ccc(O)cc1)N1[C@H](c3ccccc3)[C@H](c3ccccc3)OC(=O)[C@H]1[C@@H]2C(=O)NC[C@H](O)c1ccccc1	z-score	0.624
C=C(COC)/C(=C/C[C@@H](OC(=O)c1ccncc1)c1ccccc1OCCO)c1cnc2ccccc2c1	z-score	0.518

Can you look up the measured z-score of CCOC(=O)C1=CCC(c2cccn2C(=O)OC(C)(C)C)N(S(=O)(=O)c2ccc(C)cc2)C1 (centres undefined) for me?
0.312

Moving on to O=C(N1CCOCC1)[C@]1(CCS(=O)(=O)c2ccccc2)N=C(c2ccc(OCCCO)cc2)O[C@@H]1c1ccccc1
3.43

* * *

protocol: basal S. cerevisiae growth modulation, no modifier, primary screen, OD600, strain BY4716, 24 h, basal condition (AID 1173)
condition details: OD600, 24 h, higher = more signal, called active from +8 up or from −8 down
measure: z-score
Write the value as a bare number.

Below: 2 molecules and their reported z-score.
> print(dat)
                                   molecule  value.observed
1  CO[C@H]1O[C@H](CO)[C@@H](OC(=O)Nc2cccc(F)c2)[C@H](OC(=O)Nc2ccc3c(c2)OCO3)[C@@H]1OC(=O)Nc1ccc2c(c1)OCO2            1.38
2  CCCCCN1CC=CC23O[C@@H]4/C=C\CCCOC(=O)C4[C@H]2C(=O)N(CCCCCO)[C@@H]3C1=O (stereo partly drawn)           -1.17

Look up z-score for this molecule: COc1ccc(C(=O)Nc2ccc(CN3C(=O)[C@@]4(O[C@@H](CC(=O)N(CCO)Cc5ccccc5)[C@H]([Si](C)(C)c5ccc(OC)cc5)[C@H]4C)c4ccccc43)cc2)cc1
0.164

* * *

protocol: binders of probe aFSTL3 on microarray, primary screen, stem cell growth factor project, biochemical, small-molecule microarray, fluorescence 635/667 (AID 1064);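 also: measures binding of the biotinylated anti-FSTL3 antibody to printed compounds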
condition details: higher = more signal
Label Y when composite z-score is at or above -0.001; anything below gets N.

compound	category label
COC(=O)C(CC#Cc1ccc2c(c1)[C@]1(C(=O)N2)[C@H](c2ccc(OCCO)cc2)N2[C@H](c3ccccc3)[C@H](c3ccccc3)OC(=O)[C@H]2[C@@H]1C(N)=O)C(=O)OC	Y
O=C1C2C=CC(C(O)C(c3ccccc3)c3ccccc3)N(Nc3ccccc3F)C2C(=O)N1c1ccccc1 (configuration not stated)	N
O=C1O[C@@H](c2ccccc2)[C@@H](c2ccccc2)N2[C@@H](c3ccccc3OCCO)[C@]3(C(=O)Nc4ccc(C#CC5(O)CCCCCC5)cc43)[C@@H](C(=O)N3CCCCCCC3)[C@H]12	Y
COC(=O)[C@@]1(Cc2ccc(F)cc2)[C@H]2c3cc(C(=O)N4CCCC4)n(CCSCCO)c3C[C@H]2CN1C(=O)c1ccccc1	Y
C=CC[C@]1(C(N)=O)N=C(c2ccc(OCCCO)cc2)O[C@H]1c1ccccc1N=[N+]=[N-]	Y

Next, consider the following compound.
Assess whether reported composite z-score for COC(=O)C[C@H]1O[C@]2(C(=O)N(C)c3ccccc32)[C@@H](C)[C@@H]1[Si](C)(C)c1ccccc1 sits at -0.001 or higher.
N
